Target: TXK (Homo sapiens (Human))
Sequence (P42681 whole entry, species assumed): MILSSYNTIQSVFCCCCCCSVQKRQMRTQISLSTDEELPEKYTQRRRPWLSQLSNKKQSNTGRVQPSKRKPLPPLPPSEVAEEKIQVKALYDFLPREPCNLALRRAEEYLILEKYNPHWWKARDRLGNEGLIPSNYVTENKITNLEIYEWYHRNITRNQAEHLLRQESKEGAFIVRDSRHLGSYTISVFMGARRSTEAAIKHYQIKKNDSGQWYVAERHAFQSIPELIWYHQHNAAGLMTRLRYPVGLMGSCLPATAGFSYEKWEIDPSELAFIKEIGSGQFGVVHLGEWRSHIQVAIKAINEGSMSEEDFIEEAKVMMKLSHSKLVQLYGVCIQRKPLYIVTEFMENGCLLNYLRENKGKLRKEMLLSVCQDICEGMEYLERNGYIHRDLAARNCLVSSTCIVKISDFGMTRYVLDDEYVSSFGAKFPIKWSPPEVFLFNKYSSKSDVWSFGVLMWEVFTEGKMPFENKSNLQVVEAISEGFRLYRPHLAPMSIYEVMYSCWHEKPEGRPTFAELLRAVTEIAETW
Experiment: IC50 against TXK
Assay type: biochemical
Settings: ratio of TXK IC50 to ITK IC50

molecule	assayed_system	TXK/ITK
C=CC(=O)N1CCCN(C(=O)c2cc(Sc3cnc(NC(=O)C4CC4)s3)c(C)cc2CC)C[C@H]1C	TXK (Homo sapiens (Human))	12.3
C=CC(=O)N1CCN(C(=O)c2cc(Sc3cnc(NC(=O)c4ccsc4)s3)c(C)cc2OC)C[C@H]1C#N	TXK (Homo sapiens (Human))	3.09
C=CC(=O)N1CCN(C(=O)c2cc(Sc3cnc(NC(=O)c4cnsc4)s3)c(C)cc2OC)C[C@H]1CC	TXK (Homo sapiens (Human))	30.1
C=CC(=O)N1CCN(C(=O)c2cc(Sc3cnc(NC(=O)C4CC4)s3)c(C)cc2OC)CC[C@H]1C	TXK (Homo sapiens (Human))	0.804
C=CC(=O)N1CCN(C(=O)c2cc(Sc3cnc(NC(=O)c4cnsc4)s3)c(C)cc2C)C[C@H]1CC	TXK (Homo sapiens (Human))	11.0
C=CC(=O)N1CCN(C(=O)c2cc(C(C)c3cnc(Nc4ccccn4)s3)c(C)cc2OC)CC1 (stereo not shown)	TXK (Homo sapiens (Human))	0.93
C=CC(=O)N1CCCN(C(=O)c2cc(Sc3cnc(NC(=O)C4CC4)s3)c(C)cc2OC)C[C@H]1C(C)C	TXK (Homo sapiens (Human))	82.31
